- Target desc: Neuronal acetylcholine receptor subunit alpha-7 (Homo sapiens, UniProt P36544)
- Sequence (P36544 whole entry): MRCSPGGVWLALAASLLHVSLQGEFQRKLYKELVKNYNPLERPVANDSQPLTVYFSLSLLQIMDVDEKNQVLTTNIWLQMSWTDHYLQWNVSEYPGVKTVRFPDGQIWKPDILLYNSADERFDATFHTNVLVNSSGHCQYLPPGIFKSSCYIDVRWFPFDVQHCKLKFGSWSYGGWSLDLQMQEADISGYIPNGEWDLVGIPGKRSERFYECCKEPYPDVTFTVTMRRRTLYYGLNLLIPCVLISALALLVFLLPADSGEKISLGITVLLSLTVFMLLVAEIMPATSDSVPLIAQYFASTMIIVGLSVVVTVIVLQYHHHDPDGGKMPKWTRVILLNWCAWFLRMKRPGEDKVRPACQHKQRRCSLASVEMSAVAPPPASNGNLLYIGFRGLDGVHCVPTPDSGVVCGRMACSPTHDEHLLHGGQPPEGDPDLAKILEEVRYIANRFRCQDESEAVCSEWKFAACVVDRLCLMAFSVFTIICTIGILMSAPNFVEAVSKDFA
- Assay summary: Displacement of [3H]epibatidine from human alpha7 nAChR expressed in human HEK/RIC3 cells
Result type: pKi
Give bare numbers, as −log10 of the molar value.

Record excerpt, results attached:
Looking up FC(F)(F)c1cncc(C2=CC3CNCC(C2)C3)c1 (stereo not drawn) , I see its pKi listed as 6.19

Looking up COc1cc(C2=CC3CC(C2)CN(C)C3)cnc1Cl (stereo not drawn) , I see its pKi listed as 5.12

Provide pKi for all items below, preserving their order.
1. CN1CC2C=C(c3ccc(F)nc3)CC(C2)C1 (stereo not drawn)
2. Clc1ccc(C2=CC3CNCC(C2)C3)cn1 (stereo not drawn)
3. CNCC/C=C/c1cccnc1
4. Fc1ccc(C2=CC3CNCC(C2)C3)cn1 (stereo not drawn)
5. CN1CC2C=C(c3cncc(OCc4ccccc4)c3)CC(C2)C1 (stereo not drawn)

Key:
1. 5.88
2. 7.41
3. 5.10
4. 7.70
5. 5.34

Provide pKi for all items below, preserving their order.
1. COc1cncc(C2=CC3CNCC(C2)C3)c1 (stereo not drawn)
2. COc1ccc(C2=CC3CNCC(C2)C3)cn1 (stereo not drawn)
3. COc1ccccc1Oc1cncc(C2=CC3CNCC(C2)C3)c1 (stereo not drawn)
4. CN1CC2C=C(c3cncc(Oc4ccccc4)c3)CC(C2)C1 (stereo not drawn)
5. C1=C(c2cncc(OCc3ccccc3)c2)CC2CNCC1C2 (stereo not drawn)
6. CN1CC2C=C(c3ccc(Cl)nc3)CC(C2)C1 (stereo not drawn)

Key:
[8.34, 5.73, 7.52, 7.77, 7.36, 5.19]
